# Tested on: Staphylococcus aureus
# assay-procedure: Antibacterial activity against methicillin-resistant Staphylococcus aureus ATCC 43300 assessed as inhibition of bacterial growth measured after 24 hrs by MH broth based assay
# Type: functional
Each item that follows carries a reported MIC.
experimental-readout: MIC

[[record]]
smiles_string = "C=C[C@]1(C)C[C@@H](OC(=O)CSc2cc[n+](Cc3ccc(-c4ccccc4C#N)cc3)cc2)[C@]2(C)[C@H](C)CC[C@]3(CCC(=O)[C@H]32)[C@@H](C)[C@@H]1O.[I-]"
experimental_readout = "MIC"
observed_result = "1 µg/mL"

[[record]]
smiles_string = "C=C[C@]1(C)C[C@@H](OC(=O)CSc2cc[n+](CCCC)cc2)[C@]2(C)[C@H](C)CC[C@]3(CCC(=O)[C@H]32)[C@@H](C)[C@@H]1O.[I-]"
experimental_readout = "MIC"
observed_result = "0.25 µg/mL"

[[record]]
smiles_string = "C=C[C@]1(C)C[C@@H](OC(=O)CSc2cc[n+](CC(=O)N3CCCCC3)cc2)[C@]2(C)[C@H](C)CC[C@]3(CCC(=O)[C@H]32)[C@@H](C)[C@@H]1O.[I-]"
experimental_readout = "MIC"
observed_result = "0.25 µg/mL"

[[record]]
smiles_string = "C=C[C@]1(C)C[C@@H](OC(=O)CSc2cc[n+](CCCCCCC)cc2)[C@]2(C)[C@H](C)CC[C@]3(CCC(=O)[C@H]32)[C@@H](C)[C@@H]1O.[I-]"
experimental_readout = "MIC"
observed_result = "0.063 µg/mL"

[[record]]
smiles_string = "C=C[C@]1(C)C[C@@H](OC(=O)CSc2cc[n+](CC(C)C)cc2)[C@]2(C)[C@H](C)CC[C@]3(CCC(=O)[C@H]32)[C@@H](C)[C@@H]1O.[I-]"
experimental_readout = "MIC"
observed_result = "0.5 µg/mL"


====

# Tested on: Bacillus subtilis
# assay-procedure: Antibacterial activity against Bacillus subtilis ATCC 6633 assessed as inhibition of bacterial growth measured after 24 hrs by MH broth based assay
# Assay type: functional
Each item that follows carries a reported MIC.
experimental-readout: MIC

[[record]]
smiles_string = "C=C[C@]1(C)C[C@@H](OC(=O)CSc2cc[n+](CCCCCCCCCCCC)cc2)[C@]2(C)[C@H](C)CC[C@]3(CCC(=O)[C@H]32)[C@@H](C)[C@@H]1O.[I-]"
assayed_target = "Bacillus subtilis"
observed_result = "8 µg/mL"

[[record]]
smiles_string = "C=C[C@]1(C)C[C@@H](OC(=O)CSc2cc[n+](CC(=O)NC3CCCC3)cc2)[C@]2(C)[C@H](C)CC[C@]3(CCC(=O)[C@H]32)[C@@H](C)[C@@H]1O.[I-]"
assayed_target = "Bacillus subtilis"
observed_result = "> 64 µg/mL"

[[record]]
smiles_string = "C=C[C@]1(C)C[C@@H](OC(=O)CSc2cc[n+](CC(=O)NCCc3ccc(O)cc3)cc2)[C@]2(C)[C@H](C)CC[C@]3(CCC(=O)[C@H]32)[C@@H](C)[C@@H]1O.[I-]"
assayed_target = "Bacillus subtilis"
observed_result = "> 64 µg/mL"

[[record]]
smiles_string = "C=C[C@]1(C)C[C@@H](OC(=O)CSc2cc[n+](CCC)cc2)[C@]2(C)[C@H](C)CC[C@]3(CCC(=O)[C@H]32)[C@@H](C)[C@@H]1O.[I-]"
assayed_target = "Bacillus subtilis"
observed_result = "64 µg/mL"

[[record]]
smiles_string = "C=C[C@]1(C)C[C@@H](OC(=O)CSc2cc[n+](CCCCCCCCCC(=O)O)cc2)[C@]2(C)[C@H](C)CC[C@]3(CCC(=O)[C@H]32)[C@@H](C)[C@@H]1O.[I-]"
assayed_target = "Bacillus subtilis"
observed_result = "> 64 µg/mL"


Hello, the source for this data is ChEMBL document CHEMBL5346923, in case you need it.
